Every entry's value here was drawn from patent US9795140B2.

Tested on: Beet Armyworm (Spodoptera exigua, LAPHEG)
Assay: Bioassay on Beet Armyworm (BAW), 128-well diet tray assay
Format: in vivo
Settings: 168 h, 50 μg/cm^2 on artificial diet, second instar larvae, 25° C., five to seven days, average of eight wells, read-out: BAW % Control (or Mortality) rating
mortality at 50 µg/cm2 by entry:
assay metric: mortality at 50 µg/cm2

{"columns": ["molecule", "assay metric", "measured"],
 "data": [
  ["C[C@H](CS(=O)(=O)CCC(F)(F)F)NC(=O)c1cc(NC(=O)C2C(c3cc(Cl)cc(Cl)c3)C2(Cl)Cl)ccc1Cl (stereo in doubt)", "mortality at 50 µg/cm2", "50 to 100%"],
  ["C=CCONC(=O)c1cc(NC(=O)[C@H]2[C@H](c3cc(Cl)c(Cl)c(Cl)c3)C2(Cl)Cl)ccc1Cl (relative stereo)", "mortality at 50 µg/cm2", "50 to 100%"],
  ["O=C(NCC(F)(F)F)c1cc(NC(=O)[C@H]2[C@H](c3ccc(Br)c(C(F)(F)F)c3)C2(Cl)Cl)ccc1Cl (relative stereo)", "mortality at 50 µg/cm2", "50 to 100%"],
  ["C[C@H](C[S+]([O-])CC(F)(F)F)NC(=O)c1cc(NC(=O)C2C(c3cc(Cl)cc(Cl)c3)C2(Cl)Cl)ccc1Cl (stereo in doubt)", "mortality at 50 µg/cm2", "50 to 100%"],
  ["CCCNC(=O)c1cc(NC(=O)[C@H]2[C@H](c3cc(Cl)cc(Cl)c3)C2(Cl)Cl)cc(Cl)c1Cl (relative stereo)", "mortality at 50 µg/cm2", "50 to 100%"],
  ["O=C(NOCC1CC1(F)F)c1cc(NC(=O)C2C(c3cc(Cl)c(Cl)c(Cl)c3)C2(Cl)Cl)ccc1Cl (stereo not shown)", "mortality at 50 µg/cm2", "50 to 100%"],
  ["O=C(NCCC(F)(F)F)c1cc(NC(=O)[C@H]2[C@H](c3cc(Cl)cc(Cl)c3)C2(Cl)Cl)cc(Cl)c1Cl (relative stereo)", "mortality at 50 µg/cm2", "50 to 100%"],
  ["O=C(NOCC1CC1)c1cc(NC(=O)C2C(c3cc(Cl)cc(Cl)c3)C2(Cl)Cl)ccc1Cl (stereo not shown)", "mortality at 50 µg/cm2", "50 to 100%"],
  ["O=C(NCc1ccccn1)c1cc(NC(=O)[C@H]2[C@H](c3cc(Cl)c(Cl)c(Cl)c3)C2(Cl)Cl)ccc1Cl (relative stereo)", "mortality at 50 µg/cm2", "50 to 100%"],
  ["CC(C)(CS(C)(=O)=O)NC(=O)c1cc(NC(=O)[C@H]2[C@H](c3cc(Cl)cc(Cl)c3)C2(Cl)Cl)ccc1Cl (relative stereo)", "mortality at 50 µg/cm2", "50 to 100%"],
  ["O=C(NOc1ccccc1)c1cc(NC(=O)[C@H]2[C@H](c3cc(Cl)cc(Cl)c3)C2(Cl)Cl)ccc1Cl (relative stereo)", "mortality at 50 µg/cm2", "0%"],
  ["O=C(NCCC(F)(F)F)c1cc(NC(=O)[C@H]2[C@H](c3cc(Cl)cc(Cl)c3)C2(Cl)Cl)c(Cl)cc1Cl (relative stereo)", "mortality at 50 µg/cm2", "0 to 50%"],
  ["C#CCN(C)C(=O)c1cc(NC(=O)[C@H]2[C@H](c3cc(Cl)cc(Cl)c3)C2(Cl)Cl)ccc1Cl (relative stereo)", "mortality at 50 µg/cm2", "50 to 100%"]
]}
